Tested on: lymphocytic leukemia P388
Experiment: Lymphocytic Leukemia P388 Test
Type: in vivo, BDF1 mice
Conditions: dose 1.5 mg/kg intraperitoneally on days 1, 5 and 9; BDF1 mice
Provide the reported Median Survival of each item.
One number for each entry, in days.

For every record below, what is its Median Survival?
1. N[C@@H](CO)C(=O)NCCNc1ccc(NCCNC(=O)[C@@H](N)CO)c2c1C(=O)c1c(O)ccc(O)c1C2=O.O=C(O)C(F)(F)F.O=C(O)C(F)(F)F (relative stereo)
2. CC(C)C[C@@H](N)C(=O)NCCNc1ccc(NCCNC(=O)[C@H](N)CC(C)C)c2c1C(=O)c1c(O)ccc(O)c1C2=O.Cl.Cl (stereo in doubt)
3. CC(C)(C)OC(=O)N[C@@H](COCc1ccccc1)C(=O)NCCNc1ccc(NCCNC(=O)[C@H](COCc2ccccc2)NC(=O)OC(C)(C)C)c2c1C(=O)c1c(O)ccc(O)c1C2=O (relative stereo)

Result:
[19.0, 22.5, 13.5]

For every record below, what is its Median Survival?
1. C[C@H](NC(=O)[C@@H](N)CO)C(=O)NCCNc1ccc(NCCNC(=O)[C@H](C)NC(=O)[C@@H](N)CO)c2c1C(=O)c1c(O)ccc(O)c1C2=O.O=C(O)C(F)(F)F.O=C(O)C(F)(F)F
2. Br.Br.C[C@H](N)C(=O)NCC(=O)NCCNc1ccc(NCCNC(=O)CNC(=O)[C@H](C)N)c2c1C(=O)c1c(O)ccc(O)c1C2=O
3. CC(C)(C)OC(=O)NCC(=O)NCC(=O)NCC(=O)NCCNc1ccc(NCCNC(=O)CNC(=O)CNC(=O)CNC(=O)OC(C)(C)C)c2c1C(=O)c1c(O)ccc(O)c1C2=O
4. CC(C)(C)OC(=O)N[C@@H](CCC(=O)OCc1ccccc1)C(=O)NCCNc1ccc(NCCNC(=O)[C@H](CCC(=O)OCc2ccccc2)NC(=O)OC(C)(C)C)c2c1C(=O)c1c(O)ccc(O)c1C2=O (relative stereo)
5. Br.Br.NCC(=O)N[C@@H](Cc1ccccc1)C(=O)NCCNc1ccc(NCCNC(=O)[C@H](Cc2ccccc2)NC(=O)CN)c2c1C(=O)c1c(O)ccc(O)c1C2=O (relative stereo)
6. Br.Br.CC(C)C[C@H](N)C(=O)N[C@@H](C)C(=O)NCCNc1ccc(NCCNC(=O)[C@H](C)NC(=O)[C@@H](N)CC(C)C)c2c1C(=O)c1c(O)ccc(O)c1C2=O

Result:
1: 22.5; 2: 28.0; 3: 15.5; 4: 17.0; 5: 19.0; 6: 20.0

For every record below, what is its Median Survival?
1. C[C@H](NC(=O)[C@H](C)NC(=O)[C@@H](N)CC(=O)O)C(=O)NCCNc1ccc(NCCNC(=O)[C@H](C)NC(=O)[C@H](C)NC(=O)[C@@H](N)CC(=O)O)c2c1C(=O)c1c(O)ccc(O)c1C2=O.O=C(O)C(F)(F)F.O=C(O)C(F)(F)F
2. Cl.Cl.N[C@@H](Cc1ccc(O)cc1)C(=O)NCCNc1ccc(NCCNC(=O)[C@@H](N)Cc2ccc(O)cc2)c2c1C(=O)c1c(O)ccc(O)c1C2=O (relative stereo)
3. CC(C)C[C@H](NC(=O)[C@H](C)NC(=O)[C@@H](N)CC(=O)O)C(=O)NCCNc1ccc(NCCNC(=O)[C@H](CC(C)C)NC(=O)[C@H](C)NC(=O)[C@@H](N)CC(=O)O)c2c1C(=O)c1c(O)ccc(O)c1C2=O.O=C(O)C(F)(F)F.O=C(O)C(F)(F)F
4. CC(NC(=O)C(N)CC(=O)OC(C)(C)C)C(=O)NC(C)C(=O)NCCNc1ccc(NCCNC(=O)C(C)NC(=O)C(C)NC(=O)C(N)CC(=O)OC(C)(C)C)c2c1C(=O)c1c(O)ccc(O)c1C2=O (centres unmarked)
5. C[C@H](N)C(=O)NCCNc1ccc(NCCNC(=O)[C@H](C)N)c2c1C(=O)c1c(O)ccc(O)c1C2=O.Cl.Cl (stereo in doubt)
6. Br.Br.Br.Br.C[C@H](N)C(=O)N[C@@H](CCCNC(=N)N)C(=O)NCCNc1ccc(NCCNC(=O)[C@H](CCCNC(=N)N)NC(=O)[C@H](C)N)c2c1C(=O)c1c(O)ccc(O)c1C2=O

Result:
1: 22.5; 2: 23.5; 3: 21.5; 4: 19.5; 5: 52.5; 6: 33.0

For every record below, what is its Median Survival?
1. CC(C)C[C@H](NC(=O)[C@H](C)NC(=O)[C@H](C)NC(=O)OC(C)(C)C)C(=O)NCCNc1ccc(NCCNC(=O)[C@H](CC(C)C)NC(=O)[C@H](C)NC(=O)[C@H](C)NC(=O)OC(C)(C)C)c2c1C(=O)c1c(O)ccc(O)c1C2=O
2. Br.Br.Br.Br.C[C@H](NC(=O)[C@H](CO)NC(=O)[C@@H](N)CCCNC(=N)N)C(=O)NCCNc1ccc(NCCNC(=O)[C@H](C)NC(=O)[C@H](CO)NC(=O)[C@@H](N)CCCNC(=N)N)c2c1C(=O)c1c(O)ccc(O)c1C2=O

Result:
[16.5, 21.0]

----------
Tested on: lymphocytic leukemia P388
Test: Lymphocytic Leukemia P388 Test
Type: in vivo, BDF1 mice
Conditions: dose 0.75 mg/kg intraperitoneally on days 1, 5 and 9; BDF1 mice
Reported metric: Median Survival (days)
Numbers only, in days.

Compound: Br.Br.C[C@H](N)C(=O)N[C@@H](C)C(=O)N[C@@H](CCCNC(=N)N)C(=O)NCCNc1ccc(NCCNC(=O)[C@H](CCCNC(=N)N)NC(=O)[C@H](C)NC(=O)[C@H](C)N)c2c1C(=O)c1c(O)ccc(O)c1C2=O.O=C(O)C(F)(F)F.O=C(O)C(F)(F)F
Reported metric: Median Survival
Units symbol: days
Recorded number: 23.5
//
Compound: C[C@H](N)C(=O)NCCNc1ccc(NCCNC(=O)[C@H](C)N)c2c1C(=O)c1c(O)ccc(O)c1C2=O.Cl.Cl (stereo in doubt)
Reported metric: Median Survival
Units symbol: days
Recorded number: 25.5
//
Compound: Br.Br.CC(C)C[C@H](N)C(=O)N[C@@H](C)C(=O)NCCNc1ccc(NCCNC(=O)[C@H](C)NC(=O)[C@@H](N)CC(C)C)c2c1C(=O)c1c(O)ccc(O)c1C2=O
Reported metric: Median Survival
Units symbol: days
Recorded number: 17.0

Switching to the query record.
Ask: What does the record list as Median Survival for Br.Br.NCC(=O)NCC(=O)NCCNc1ccc(NCCNC(=O)CNC(=O)CN)c2c1C(=O)c1c(O)ccc(O)c1C2=O ?
Result: 22.0

----------
Provide the reported Median Survival of each item.
System: lymphocytic leukemia P388
Test: Lymphocytic Leukemia P388 Test
Type: in vivo, BDF1 mice
Settings: dose 1.5 mg/kg intraperitoneally on days 1, 5 and 9; BDF1 mice
Method: The animals used were BDF1 mice, all of one sex, weighing a minimum of 18 g and all within a 3 g weight range. There were 5 or 6 mice per test group. The tumor transplant was by intraperitoneal injection of 0.5 ml of dilute ascitic fluid containing 10^6 cells of lymphocytic leukemia P388. […] The animals were weighed and survivors recorded on a regular basis for 60 days. The median survival time and the ratio of survival time for treated (T)/control (C) animals were calculated.
Numbers only, in days.

See these solved cases before continuing.
Compound: CC(C)C[C@H](NC(=O)[C@H](C)NC(=O)[C@@H](N)CC(=O)OC(C)(C)C)C(=O)NCCNc1ccc(NCCNC(=O)[C@H](CC(C)C)NC(=O)[C@H](C)NC(=O)[C@@H](N)CC(=O)OC(C)(C)C)c2c1C(=O)c1c(O)ccc(O)c1C2=O [Example 82]
Median Survival [days]: 19.0
//
Compound: O=C(CNC(=O)OCc1ccccc1)N[C@@H](Cc1ccccc1)C(=O)NCCNc1ccc(NCCNC(=O)[C@H](Cc2ccccc2)NC(=O)CNC(=O)OCc2ccccc2)c2c1C(=O)c1c(O)ccc(O)c1C2=O [Example 53]
Median Survival [days]: 17.5
//
Compound: O=C(O)C(F)(F)F.O=C(O)C(F)(F)F.O=C(O)CC[C@H](NC(=O)OCc1ccccc1)C(=O)NCCNc1ccc(NCCNC(=O)[C@H](CCC(=O)O)NC(=O)OCc2ccccc2)c2c1C(=O)c1c(O)ccc(O)c1C2=O (relative stereo) [Example 48]
Median Survival [days]: 15.0

For every record below, what is its Median Survival?
1. Cl.Cl.N[C@@H](Cc1ccccc1)C(=O)NCCNc1ccc(NCCNC(=O)[C@@H](N)Cc2ccccc2)c2c1C(=O)c1c(O)ccc(O)c1C2=O (relative stereo) [Example 17]
2. CC(C)C[C@H](NC(=O)[C@H](C)NC(=O)[C@H](CC(=O)OC(C)(C)C)NC(=O)OCC1c2ccccc2-c2ccccc21)C(=O)NCCNc1ccc(NCCNC(=O)[C@H](CC(C)C)NC(=O)[C@H](C)NC(=O)[C@H](CC(=O)OC(C)(C)C)NC(=O)OCC2c3ccccc3-c3ccccc32)c2c1C(=O)c1c(O)ccc(O)c1C2=O [Example 81]
3. Cl.Cl.N[C@@H](CCC(=O)O)C(=O)NCCNc1ccc(NCCNC(=O)[C@@H](N)CCC(=O)O)c2c1C(=O)c1c(O)ccc(O)c1C2=O (relative stereo) [Example 23]

Result:
1: 23.0; 2: 18.5; 3: 24.5

For every record below, what is its Median Survival?
1. CC(C)C[C@H](NC(=O)CNC(=O)CNC(=O)OCc1ccccc1)C(=O)NCCNc1ccc(NCCNC(=O)[C@H](CC(C)C)NC(=O)CNC(=O)CNC(=O)OCc2ccccc2)c2c1C(=O)c1c(O)ccc(O)c1C2=O [Example 69]
2. CC(C)(C)OC(=O)N[C@@H](CC(=O)OCc1ccccc1)C(=O)NCCNc1ccc(NCCNC(=O)[C@H](CC(=O)OCc2ccccc2)NC(=O)OC(C)(C)C)c2c1C(=O)c1c(O)ccc(O)c1C2=O (relative stereo) [Example 45]
3. CC(C)[C@H](N)C(=O)NCCNc1ccc(NCCNC(=O)[C@@H](N)C(C)C)c2c1C(=O)c1c(O)ccc(O)c1C2=O.Cl.Cl (relative stereo) [Example 24]

Result:
[17.0, 15.5, 20.0]

Data provenance: patent US4732970A
